Tested on: HT-29
PROTOCOL_DETAILS: Cytotoxicity against human HT-29 cells after 96 hrs using tetracolor one
Assay type: functional, cell-based
CONDITION_DETAILS: HT-29, 96 h
EXPERIMENTAL_ENDPOINT: log10 IC50 (log10 of the value in nM)
Scale type: logarithmic (base 10). Underlying IC50 unit: nM.

COc1cc2c(c(OC)c1OC)-c1ccc(OC)c(=O)cc1[C@@H](NC(C)=O)CC2
0.90
COc1c(N)c2c(c(OC)c1OC)-c1ccc(OC)c(=O)cc1[C@@H](NC(C)=O)CC2
3.19
COc1c(I)c2c(c(OC)c1OC)-c1ccc(OC)c(=O)cc1[C@@H](NC(C)=O)CC2
0.78
COc1c(O)c2c(c(OC)c1OC)-c1ccc(OC)c(=O)cc1[C@@H](NC(C)=O)CC2
2.68
COc1c(C=O)c2c(c(OC)c1OC)-c1ccc(OC)c(=O)cc1[C@@H](NC(C)=O)CC2
2.11

Input line: // lookup log10 IC50 for `COc1c(OC)c2c(c([N+](=O)[O-])c1OC)CC[C@H](NC(C)=O)c1cc(=O)c(OC)ccc1-2`
Output line: 1.49

Input line: // lookup log10 IC50 for `COc1c(Cl)c2c(c(OC)c1OC)-c1ccc(OC)c(=O)cc1[C@@H](N)CC2`
Output line: 2.40

Input line: // lookup log10 IC50 for `COc1cc2c(c(OC)c1OC)-c1ccc(OC)c(=O)cc1[C@@H](NC(=O)OCc1ccc(NC(=O)[C@H](CCCCN)NC(=O)[C@H](Cc3ccccc3)NC(=O)OCc3ccccc3)cc1)CC2`
Output line: 1.64
